Origin of measurements: patent US20230111363A1

Listing of recorded IC50 of inhibition of CD8 T cell proliferation by entry.
Molecular target: T1, human monocarboxylate transporter 1 (MCT1) (human, UniProt P53985 1-500)
T1 sequence: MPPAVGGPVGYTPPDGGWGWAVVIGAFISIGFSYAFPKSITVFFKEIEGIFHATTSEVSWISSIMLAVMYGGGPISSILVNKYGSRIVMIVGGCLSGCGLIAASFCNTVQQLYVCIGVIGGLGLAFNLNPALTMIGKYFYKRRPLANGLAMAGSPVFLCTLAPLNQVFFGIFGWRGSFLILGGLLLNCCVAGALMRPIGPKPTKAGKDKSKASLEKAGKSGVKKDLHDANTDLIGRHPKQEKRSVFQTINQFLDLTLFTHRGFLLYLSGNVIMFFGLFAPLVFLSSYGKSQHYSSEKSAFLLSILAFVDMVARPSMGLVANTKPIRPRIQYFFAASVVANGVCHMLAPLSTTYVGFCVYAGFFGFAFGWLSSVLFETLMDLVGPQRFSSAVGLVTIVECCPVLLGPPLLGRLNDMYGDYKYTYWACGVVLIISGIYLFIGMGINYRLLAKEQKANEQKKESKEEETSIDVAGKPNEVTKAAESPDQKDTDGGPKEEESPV
Experiment: cell-based or functional assay
A number alone suffices; assume nM.

# count of solved cases: 2
anti-human MCT1 antibody Ab8 (antibody, human IgG1, kappa, V domains shown, IgG1EN backbone) VH: QVQLVQSGAEVKKPGASVKVSCTVSGRSLTNYHLQWVRQAPGQGLEWMGFIRSSGNTIYNSEFKSRVTMTRDTSTSTVYMELSSLRSEDTAVYYCARNRWYHGTYYSPGYYVMDAWGQGTLVTVSS VL: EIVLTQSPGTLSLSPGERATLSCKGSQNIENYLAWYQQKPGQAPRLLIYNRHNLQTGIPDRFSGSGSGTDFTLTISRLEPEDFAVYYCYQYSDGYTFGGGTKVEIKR :: 3
anti-human MCT1 antibody Ab11 (antibody, human IgG1, kappa, V domains shown, IgG1EN backbone) VH: QVQLVQSGAEVKKPGASVKVSCTVSGRSLTNYHLQWVRQAPGQGLEWMGFIRSSGNTEYNSEFKSRVTMTRDTSTSTVYMELSSLRSEDTAVYYCARNRWHHGTYYSPGYYVMDAWGQGTLVTVSS VL: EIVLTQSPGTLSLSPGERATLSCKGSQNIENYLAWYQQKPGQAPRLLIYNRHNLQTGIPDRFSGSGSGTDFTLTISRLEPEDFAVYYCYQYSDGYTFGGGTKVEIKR :: 5

Read the next record carefully.
Problem: Item anti-human MCT1 antibody Ab17 (antibody, human IgG1, kappa, V domains shown, IgG1EN backbone) VH: QVQLVQSGAEVKKPGASVKVSCTVSGRSLTNIHLQWVRQAPGQGLEWMGFIRSSGNTEYNSEFKSRVTMTRDTSTSTVYMELSSLRSEDTAVYYCARNRWYHGTYYSPGYYVMDAWGQGTLVTVSS VL: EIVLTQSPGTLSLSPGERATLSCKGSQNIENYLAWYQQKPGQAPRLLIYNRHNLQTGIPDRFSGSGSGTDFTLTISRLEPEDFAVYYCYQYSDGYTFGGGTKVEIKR has what recorded IC50 of inhibition of CD8 T cell proliferation?
Result: 2
